Test system: SW620 (Dukes' Type C, Grade IV invasive colorectal adenocarcinoma)
Assay: MTT cytotoxicity, SW620 cells
Conditions: IS = CC50 MCRT ÷ CC50 SW620
Method: The compounds were solubilized in dimethyl sulfoxide (DMSO, Fischer Chemical, NJ, USA) at 50,000 μg/mL and stored at −20°C until use. […] The cytotoxic activity of synthesized FQASs and QASs was studied by measuring cell viability/mortality, determined with the MTT (3-(4,5-dimethylthiazol-2-yl)-2,5-diphenyl tetrazole bromide) method (VWR Chemicals and Reagents Avantor), upon exposure of each cell line to six serial dilutions of the different compounds independently. […]
Readings of Index of selectivity MCRT / SW620 for the listed compounds
Give your answer as a number; write no unit.

Examples with answers:
C[N+](C)(CCl)CCCC=C(c1cccc(C(F)(F)F)c1)c1cccc(C(F)(F)F)c1 [Compound 5] :: 4.9
C[N+](C)(C)CCCC=C(c1cccc(F)c1)c1cccc(F)c1 [Compound 1] :: 3.3
C[N+](C)(C)CCCCC=C(c1ccc(C(F)(F)F)cc1)c1ccc(C(F)(F)F)cc1 [Compound 14] :: 28.9

Per the reported SW620 (Dukes' Type C, Grade IV invasive colorectal adenocarcinoma) data, C[N+](C)(C)CCCC=C(c1cccc(C(F)(F)F)c1)c1cccc(C(F)(F)F)c1 [Compound 7] has Index of selectivity MCRT / SW620 of 4.0

Per the reported SW620 (Dukes' Type C, Grade IV invasive colorectal adenocarcinoma) data, C[N+](C)(CI)CCCCC=C(c1cccc(C(F)(F)F)c1)c1cccc(C(F)(F)F)c1 [Compound 11] has Index of selectivity MCRT / SW620 of 5.2

====

Test system: SW48 (Dukes' Type C, Grade IV, noninvasive colorectal adenocarcinoma)
Assay: MTT cytotoxicity, SW48 cells
Conditions: Homo sapiens, SW48, 48 h, SW48 cells, MTT, 48 h, mean ± SD
MEASURE: CC50 (µM)
Just the number please, in µM, no unit attached.

C[N+](C)(CI)CCCCC=C(c1cccc(C(F)(F)F)c1)c1cccc(C(F)(F)F)c1 [Compound 11] :: 22.1
C[N+](C)(CCl)CCCC=C(c1cccc(C(F)(F)F)c1)c1cccc(C(F)(F)F)c1 [Compound 5] :: 43.5
C[N+](C)(CI)CCCCC=C(c1ccc(F)cc1)c1ccc(F)cc1 [Compound 4] :: 100
C[N+](C)(CI)CCCCC=C(c1ccccc1)c1ccccc1 [Compound 16] :: 65.2
C[N+](C)(C)CCCC=C(c1ccc(C(F)(F)F)cc1)c1ccc(C(F)(F)F)cc1 [Compound 10] :: 44

Briefly, CC50 measured for C[N+](C)(C)CCCCC=C(c1ccc(C(F)(F)F)cc1)c1ccc(C(F)(F)F)cc1 [Compound 14] : 16.3

Briefly, CC50 measured for C[N+](C)(CCl)CCCCC=C(c1ccc(C(F)(F)F)cc1)c1ccc(C(F)(F)F)cc1 [Compound 12] : 48

Briefly, CC50 measured for C[N+](C)(CCl)CCCCC=C(c1ccc(F)cc1)c1ccc(F)cc1 [Compound 3] : 125

====

Readings of Index of selectivity SW948 vs. SW620 for the listed molecules
Tested on: CRC cell lines SW48, SW620, and SW948
Assay: MTT cytotoxicity across CRC cell lines (pooled statements, selectivity between lines)
Type: cell-based
Conditions: IS = CC50 SW948 ÷ CC50 SW620
Give your answer as a number; write no unit.

Examples with answers:
C[N+](C)(CCl)CCCCC=C(c1ccc(F)cc1)c1ccc(F)cc1 [Compound 3] :: 0.8
C[N+](C)(CI)CCCCC=C(c1cccc(C(F)(F)F)c1)c1cccc(C(F)(F)F)c1 [Compound 11] :: 1.2
C[N+](C)(C)CCCC=C(c1ccc(C(F)(F)F)cc1)c1ccc(C(F)(F)F)cc1 [Compound 10] :: 0.7
C[N+](C)(CI)CCCCC=C(c1ccc(C(F)(F)F)cc1)c1ccc(C(F)(F)F)cc1 [Compound 13] :: 1.7
C[N+](C)(CCl)CCCC=C(c1cccc(C(F)(F)F)c1)c1cccc(C(F)(F)F)c1 [Compound 5] :: 1.8

Briefly, Index of selectivity SW948 vs. SW620 measured for C[N+](C)(CI)CCCC=C(c1ccc(C(F)(F)F)cc1)c1ccc(C(F)(F)F)cc1 [Compound 9] : 0.6

Briefly, Index of selectivity SW948 vs. SW620 measured for C[N+](C)(C)CCCC=C(c1cccc(F)c1)c1cccc(F)c1 [Compound 1] : 3.3

Briefly, Index of selectivity SW948 vs. SW620 measured for C[N+](C)(C)CCCCC=C(c1ccc(C(F)(F)F)cc1)c1ccc(C(F)(F)F)cc1 [Compound 14] : 3.4

Briefly, Index of selectivity SW948 vs. SW620 measured for O=c1[nH]cc(F)c(=O)[nH]1 [Compound 5-FU, 5-fluorouracil, reference compound] : 1.0

Briefly, Index of selectivity SW948 vs. SW620 measured for C[N+](C)(CI)CCCCC=C(c1ccccc1)c1ccccc1 [Compound 16] : 1.0

Briefly, Index of selectivity SW948 vs. SW620 measured for C[N+](C)(CI)CCCC=C(c1ccc(F)cc1)c1ccc(F)cc1 [Compound 2] : 2.8

Briefly, Index of selectivity SW948 vs. SW620 measured for C[N+](C)(CI)CCCC=C(c1ccccc1)c1ccccc1 [Compound 15] : 0.6

Briefly, Index of selectivity SW948 vs. SW620 measured for C[N+](C)(CCl)CCCCC=C(c1ccc(C(F)(F)F)cc1)c1ccc(C(F)(F)F)cc1 [Compound 12] : 1.7

Briefly, Index of selectivity SW948 vs. SW620 measured for C[N+](C)(CCl)CCCC=C(c1ccc(C(F)(F)F)cc1)c1ccc(C(F)(F)F)cc1 [Compound 8] : 1.1

Briefly, Index of selectivity SW948 vs. SW620 measured for C[N+](C)(CI)CCCCC=C(c1ccc(F)cc1)c1ccc(F)cc1 [Compound 4] : 1.4

Data provenance is paper PMC11540889.
